experimentSummary: Pilot PK study of auto-injectors vs 0.3 mg manual IM injection
Assay type: in vivo
settings: human, plasma, intramuscular, 27 healthy subjects, crossover, read-out: median Tmax (converted)
measuredProperty: Tmax
Field: value (include unit after the number)

CNC[C@H](O)c1ccc(O)c(O)c1 [Epinephrine IM Injection, epinephrine] has a reported Tmax of 50 min

====

experimentSummary: in vivo
settings: po, 6 mg
measuredProperty: Tmax (h)
Provide only the numeric value, understood in h.

CNC[C@H](O)c1ccc(OC(=O)C(C)(C)C)c(OC(=O)C(C)(C)C)c1 (racemic) [Dipi Solution, dipivefrin] has a reported Tmax of 0

====

experimentSummary: AQST-109 single and repeat dose PK vs EpiPen and 0.3 mg IM (AQ109201)
Format: in vivo, human
settings: human, plasma, intramuscular, 0.3 mg, Repeat Dose (10 min); read-out: Tmax Range
measuredProperty: Tmax

CNC[C@H](O)c1ccc(O)c(O)c1 [Epinephrine IM Injection, epinephrine] has a reported Tmax of 30 to 70 min

====

experimentSummary: in vivo
settings: sc, 22 mg
measuredProperty: Cmax (µg/mL)
Provide only the numeric value, understood in µg/mL.

CNC[C@H](O)c1ccc(OC(=O)C(C)(C)C)c(OC(=O)C(C)(C)C)c1 (racemic) [Dipi Solution, dipivefrin] has a reported Cmax of 0.015

====

experimentSummary: AQST-109 single and repeat dose PK vs EpiPen and 0.3 mg IM (AQ109201)
Assay type: in vivo, human
settings: human, plasma, intramuscular, 0.3 mg, single dose administration; read-out: Tmax (median) (converted)
measuredProperty: Tmax (min)
Provide only the numeric value, understood in min.

CNC[C@H](O)c1ccc(O)c(O)c1 [Epinephrine IM Injection, epinephrine] has a reported Tmax of 45

====

experimentSummary: AQST-109 12 mg residence time / food / swallowed film PK study
Assay type: in vivo, human
settings: human, plasma, im, 0.3 mg, AQST-109 12 mg (N = 48 doses); Epinephrine IM Injection 0.3 mg (N = 48 doses); read-out: Geometric Cmax
measuredProperty: Cmax (ng/mL)
Provide only the numeric value, understood in ng/mL.

CNC[C@H](O)c1ccc(O)c(O)c1 [Epinephrine IM Injection, epinephrine] has a reported Cmax of 0.351

====

experimentSummary: Pilot PK study of auto-injectors vs 0.3 mg manual IM injection
Format: in vivo
settings: human, plasma, intramuscular, 27 healthy subjects, crossover, read-out: geometric mean Cmax
measuredProperty: Cmax (ng/mL)
Provide only the numeric value, understood in ng/mL.

CNC[C@H](O)c1ccc(O)c(O)c1 [Epinephrine IM Injection, epinephrine] has a reported Cmax of 0.344

====

experimentSummary: in vivo
settings: sc, 22 mg
measuredProperty: Tmax (min)
Provide only the numeric value, understood in min.

CNC[C@H](O)c1ccc(OC(=O)C(C)(C)C)c(OC(=O)C(C)(C)C)c1 (racemic) has a reported Tmax of 5

Each recorded value in this set is attributed to patent US20240016734A1.
